Items are presented alongside their recorded MBEC C. lipolytica.
tested on: Candida lipolytica PCM 2680-FY; type: cell-based; conditions: 24 h
Where a SMILES comes first, the peptide text is derived from it. Bridges are numbered along the chain shown (N, C = ends). The star is where a group is joined. Palmitoyl = CCCCCCCCCCCCCCCC(=O)*
// note: answer is a bare numeric in µg/mL

1) CCCCCCCCCCCCCCCC(=O)N[C@H]1CSSC[C@@H](C(N)=O)NC(=O)[C@H](CCCCN)NC(=O)[C@H](CCCCN)NC(=O)[C@H](CCCCN)NC(=O)[C@H](CCCNC(=N)N)NC1=O [C3, C16-CRKKKC-NH2] (Palmitoyl-CRKKKC-NH2; disulfide 1-6)    16

Next:
Any idea what MBEC C. lipolytica was measured for CCCCCCCCCCCCCCCC(=O)N[C@@H](CCCNC(=N)N)C(=O)N[C@@H](CCCCN)C(=O)N[C@@H](CCCCN)C(=O)N[C@@H](CCCCN)C(N)=O [L3, C16-RKKK-NH2] (Palmitoyl-RKKK-NH2) ?
32

====

Items are presented alongside their recorded MBEC C. lipolytica.
system: Candida lipolytica PCM 2680-FY; type: cell-based; conditions: 24 h
Where a SMILES comes first, the peptide text is derived from it. Bridges are numbered along the chain shown (N, C = ends). The star is where a group is joined. Palmitoyl = CCCCCCCCCCCCCCCC(=O)*
Note: a bare number is incomplete; add the unit.

1) CCCCCCCCCCCCCCCC(=O)N[C@@H](CCCCN)C(=O)N[C@@H](CCCCN)C(=O)N[C@@H](CCCCN)C(=O)N[C@@H](CCCNC(=N)N)C(N)=O [L6, C16-KKKR-NH2] (Palmitoyl-KKKR-NH2)    32 µg/mL
2) CCCCCCCCCCCCCCCC(=O)N[C@@H](CCCCN)C(=O)N[C@@H](CCCCN)C(=O)N[C@@H](CCCCN)C(N)=O    64 µg/mL
3) CCCCCCCCCCCCCCCC(=O)N[C@@H](CCCCN)C(=O)N[C@@H](CCCCN)C(=O)N[C@@H](CCCCN)C(=O)N[C@@H](CCCCN)C(N)=O [L2, C16-KKKK-NH2] (Palmitoyl-KKKK-NH2)    64 µg/mL
4) CCCCCCCCCCCCCCCC(=O)N[C@H]1CSSC[C@@H](C(N)=O)NC(=O)[C@H](CCCCN)NC(=O)[C@H](CCCCN)NC(=O)[C@H](CCCCN)NC1=O [C1, C16-CKKKC-NH2] (Palmitoyl-CKKKC-NH2; disulfide 1-5)    64 µg/mL
5) CCCCCCCCCCCCCCCC(=O)N[C@H]1CSSC[C@@H](C(N)=O)NC(=O)[C@H](CCCCN)NC(=O)[C@H](CCCCN)NC(=O)[C@H](CCCNC(=N)N)NC(=O)[C@H](CCCCN)NC1=O [C4, C16-CKRKKC-NH2] (Palmitoyl-CKRKKC-NH2; disulfide 1-6)    16 µg/mL

Any idea what MBEC C. lipolytica was measured for CCCCCCCCCCCCCCCC(=O)N[C@H]1CSSC[C@@H](C(N)=O)NC(=O)[C@H](CCCCN)NC(=O)[C@H](CCCCN)NC(=O)[C@H](CCCNC(=N)N)NC(=O)[C@H](CCCNC(=N)N)NC1=O [C7, C16-CRRKKC-NH2] (Palmitoyl-CRRKKC-NH2; disulfide 1-6) ?
16 µg/mL

Any idea what MBEC C. lipolytica was measured for CCCCCCCCCCCCCCCC(=O)N[C@@H](CCCCN)C(=O)N[C@@H](CCCCN)C(=O)N[C@@H](CCCNC(=N)N)C(=O)N[C@@H](CCCCN)C(N)=O [L5, C16-KKRK-NH2] (Palmitoyl-KKRK-NH2) ?
64 µg/mL

Values compiled from paper PMC7582905.
